Tested on: mouse monocytic leukemia P-388 cell line
assay_details: In vivo anticancer activity against mouse monocytic leukemia P-388 cell line
Parameters: species or system mouse (CDF1)
protocol_conditions: 25 mg/kg, oral, twice (following day and after 5 days)
metric: T/C (median survival time, treated/control) (%)

record_smiles	endpoint_result
COc1ccc(S(=O)(=O)Nc2ccccc2/C=C/c2ccncc2)cc1.Cl	116
COc1ccc(S(=O)(=O)N(CCO)c2ccccc2/C=C/c2ccncc2)cc1	105
COc1ccc(S(=O)(=O)Nc2ccccc2/C=C/c2cc[n+]([O-])cc2)cc1	135
COc1ccc(S(=O)(=O)N(C(C)=O)c2ccccc2/C=C/c2cc[n+]([O-])cc2)cc1	115
